Target: human somatostatin receptor subtype 2 (Homo sapiens, UniProt P30874)
Sequence (P30874 whole entry): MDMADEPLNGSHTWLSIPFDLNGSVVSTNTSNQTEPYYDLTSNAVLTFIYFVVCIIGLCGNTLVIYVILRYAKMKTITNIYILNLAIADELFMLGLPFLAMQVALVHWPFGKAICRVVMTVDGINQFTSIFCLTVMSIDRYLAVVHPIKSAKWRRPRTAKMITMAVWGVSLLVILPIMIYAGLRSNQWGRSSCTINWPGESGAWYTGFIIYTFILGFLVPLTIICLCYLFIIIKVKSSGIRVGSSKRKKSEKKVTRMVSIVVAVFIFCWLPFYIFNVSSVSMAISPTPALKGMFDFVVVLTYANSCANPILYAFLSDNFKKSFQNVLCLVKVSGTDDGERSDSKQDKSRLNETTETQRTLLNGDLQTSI
Experiment: cAMP assay for SST2R (inhibition of cAMP via human SST2 receptor)
Settings: Table B, read-out: SST2 potency
quantity_kind: EC50

Take a look at these entries with their results.
molecule	experimental_system	reported_value
Cn1c(-c2cncc(-c3ccc(F)c(C#N)c3)c2N2CC[C@H](N)C2)nc2c(Cl)cccc21	human somatostatin receptor subtype 2 (Homo sapiens, UniProt P30874)	> 1 µM
Cc1cccc2nc(-c3cncc(-c4cc(F)cc(C(F)(F)F)c4)c3N3CC[C@H](N)C3)[nH]c12	human somatostatin receptor subtype 2 (Homo sapiens, UniProt P30874)	0.1 to 1 µM
Cc1ccc(F)c2nc(-c3cncc(-c4cccc(C#N)c4)c3N3CC[C@H](N)C3)[nH]c12	human somatostatin receptor subtype 2 (Homo sapiens, UniProt P30874)	0.1 to 1 µM

Kindly give each listed record's EC50.
1. CC1(N)CCN(c2c(-c3cc(F)cc(Cl)c3)cncc2-c2nc3cccc(F)c3[nH]2)C1 (stereo not drawn)
2. Cc1cc(F)cc(-c2cncc(-c3nc4c(F)cc(F)cc4[nH]3)c2N2CC[C@H](N)C2)c1 (stereo in doubt)
3. CC1(N)CCN(c2c(-c3cccc(OC(F)(F)F)c3)cncc2-c2nc3cccc(F)c3[nH]2)C1 (stereo not drawn)
4. Cc1cncc2nc(-c3cncc(-c4ccc(F)c(C#N)c4)c3N3CCC(C)(N)C3)[nH]c12 (stereo not drawn)

1: 0.01 to 0.1 µM; 2: 0.1 to 1 µM; 3: 0.1 to 1 µM; 4: 0.1 to 1 µM

Kindly give each listed record's EC50.
1. CC1(N)CCN(c2c(-c3cccc(C(N)=O)c3)cncc2-c2nc3c(F)cccc3[nH]2)C1 (stereo not drawn)
2. N#Cc1cccc(-c2cncc(-c3nc4cccc(Br)c4[nH]3)c2N2CC[C@H](N)C2)c1
3. Cc1ccnc2nc(-c3cncc(-c4cccc(Cl)c4)c3N3CC[C@](C)(N)C3)[nH]c12
4. Cc1ccnc2[nH]c(-c3cncc(-c4cc(F)c(F)c(C#N)c4)c3N3CC[C@](C)(N)C3)nc12

1: > 1 µM; 2: 0.1 to 1 µM; 3: 0.01 to 0.1 µM; 4: 0.1 to 1 µM

###

Could you please report measured pEC50 for the items listed next?
Target: human somatostatin receptor subtype 5 (Homo sapiens, UniProt P35346)
Sequence (P35346 whole entry): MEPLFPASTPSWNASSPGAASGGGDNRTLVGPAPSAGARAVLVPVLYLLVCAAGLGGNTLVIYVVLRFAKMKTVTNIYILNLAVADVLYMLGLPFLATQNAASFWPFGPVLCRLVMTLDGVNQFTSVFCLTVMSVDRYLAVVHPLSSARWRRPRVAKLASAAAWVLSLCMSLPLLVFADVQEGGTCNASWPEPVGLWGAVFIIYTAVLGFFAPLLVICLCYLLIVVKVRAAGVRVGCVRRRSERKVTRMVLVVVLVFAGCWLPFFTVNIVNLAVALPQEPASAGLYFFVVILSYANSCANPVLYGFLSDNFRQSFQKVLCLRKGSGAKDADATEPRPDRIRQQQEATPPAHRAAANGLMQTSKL
Experiment: cAMP assay for SST5R (inhibition of cAMP via human SST5 receptor)
pEC50: −log10 of the molar value.

molecule	reported_value
Cc1cc(-c2cncc(-c3nc4cc(F)cc(F)c4[nH]3)c2N2CC(CN)C2)ccc1F [Compound 1-47]	> 8.00
Cc1cc(F)cc(-c2cncc(-c3nc4cc(Cl)ccc4[nH]3)c2N2CC(CN)C2)c1 [Compound 1-4]	7.00 to 8.00
Cc1cccc2nc(-c3cncc(-c4ccc(Cl)c(C#N)c4)c3N3CC[C@H](N)C3)[nH]c12 [Compound 2-98]	> 8.00
CC1(N)CCN(c2c(-c3ccc4c(c3)OCC4)cncc2-c2nc3cccc(F)c3[nH]2)C1 (centres unmarked) [Compound 2-22]	> 8.00
COc1ccc2nc(-c3cncc(-c4cc(F)cc(Cl)c4)c3N3CC[C@H](N)C3)[nH]c2c1 [Compound 2-104]	7.00 to 8.00

Kindly give each listed record's pEC50.
1. N#Cc1ccc2nc(-c3cncc(-c4cc(F)cc(Cl)c4)c3N3CC[C@H](N)C3)[nH]c2c1 [Compound 2-103]
2. N#Cc1cccc(-c2cncc(-c3nc4c(F)cccc4[nH]3)c2N2C[C@@H](N)[C@H](C(N)=O)C2)c1 (racemic) [Compound 2-69]
3. N#Cc1cc(F)cc(-c2cncc(-c3nc4ccccc4[nH]3)c2N2CC[C@H](N)C2)c1 [Compound 2-109]
4. Cc1cc(C)c2nc(-c3cncc(-c4cccc(C#N)c4)c3N3CC[C@](C)(N)C3)[nH]c2n1 [Compound 2-173]
5. Cc1cccc2nc(-c3cncc(-c4cc(F)cc(C#N)c4)c3N3CC[C@](N)(CO)C3)[nH]c12 [Compound 2-136]
6. CN(C)C(=O)c1cccc(-c2cncc(-c3nc4cccc(F)c4[nH]3)c2N2CCC(C)(N)C2)c1 (centres unmarked) [Compound 2-31]
7. Cc1cccc2nc(-c3cncc(-c4cc(F)cc(C(N)=O)c4)c3N3CC[C@H](N)C3)[nH]c12 [Compound 2-65]

["7.00 to 8.00", "< 6.00", "> 8.00", "> 8.00", "7.00 to 8.00", "6.00 to 7.00", "> 8.00"]

###

Biological target: human somatostatin receptor subtype 5 (Homo sapiens, UniProt P35346)
Assay: cAMP assay for SST5R (inhibition of cAMP via human SST5 receptor)
Conditions: SST5 over SST2, class symbols
quantity_kind: Fold selectivity for SST5 vs SST2

molecule	experimental_system	Fold selectivity for SST5 vs SST2
N#Cc1cc(F)cc(-c2cncc(-c3nc4ccc(Cl)cc4[nH]3)c2N2CC[C@H](N)C2)c1	human somatostatin receptor subtype 5 (Homo sapiens, UniProt P35346)	++ (++=100 to 499)
N#Cc1cc(-c2cncc(-c3nc4ccc(F)c(F)c4[nH]3)c2N2CC[C@H](N)C2)ccc1F	human somatostatin receptor subtype 5 (Homo sapiens, UniProt P35346)	+++ (+++=≥500)
Cc1cc(F)cc2[nH]c(-c3cncc(-c4ccnc(C#N)c4)c3N3CC[C@](C)(N)C3)nc12	human somatostatin receptor subtype 5 (Homo sapiens, UniProt P35346)	+++ (+++=≥500)
CCn1c(-c2cncc(-c3cccc(C#N)c3)c2N2CC[C@H](N)C2)nc2c(F)cccc21	human somatostatin receptor subtype 5 (Homo sapiens, UniProt P35346)	+++ (+++=≥500)
N#Cc1cc(-c2cncc(-c3nc4cccc(F)c4[nH]3)c2N2CC[C@H](N)C2)ccc1F	human somatostatin receptor subtype 5 (Homo sapiens, UniProt P35346)	+++ (+++=≥500)
Cc1ccnc2[nH]c(-c3cncc(-c4cc(F)c(F)c(C#N)c4)c3N3CC[C@](C)(N)C3)nc12	human somatostatin receptor subtype 5 (Homo sapiens, UniProt P35346)	++ (++=100 to 499)

Kindly give each listed record's Fold selectivity for SST5 vs SST2.
1. CC1(N)CCN(c2c(-c3ccc(F)c(C#N)c3)cncc2-c2nc3cccc(C#N)c3[nH]2)C1 (stereo not shown)
2. Cc1cccc2c1nc(-c1cncc(-c3ccc(F)c(C#N)c3)c1N1CC[C@H](N)C1)n2C

1: +++ (+++=≥500); 2: +++ (+++=≥500)

###

Biological target: human somatostatin receptor subtype 5 (Homo sapiens, UniProt P35346)
Assay: cAMP assay for SST5R (inhibition of cAMP via human SST5 receptor)
pEC50: −log10 of the molar value.
Could you please report measured pEC50 for the items listed next?

Take a look at these entries with their results.
compound	experimental_system	pEC50
NCC1CN(c2c(-c3cccc(Cl)c3)cncc2-c2nc3c(F)cc(F)cc3[nH]2)C1 [Compound 1-53]	human somatostatin receptor subtype 5 (Homo sapiens, UniProt P35346)	> 8.00
Cc1cccc2nc(-c3cncc(-c4cccc(C(N)=O)c4F)c3N3CCC(C)(N)C3)[nH]c12 (stereo not shown) [Compound 2-138]	human somatostatin receptor subtype 5 (Homo sapiens, UniProt P35346)	> 8.00
C[C@]1(N)CCN(c2c(-c3ccc(F)c(C#N)c3)cncc2-c2nc3ncc(F)cc3[nH]2)C1 [Compound 2-168]	human somatostatin receptor subtype 5 (Homo sapiens, UniProt P35346)	> 8.00
NCC1CN(c2c(-c3ccc4cc[nH]c4c3)cncc2-c2nc3cc(F)cc(F)c3[nH]2)C1 [Compound 1-35]	human somatostatin receptor subtype 5 (Homo sapiens, UniProt P35346)	< 6.00
Cc1cccc2[nH]c(-c3cncc(-c4ccnc(C(N)=O)c4)c3N3CC[C@](C)(N)C3)nc12 [Compound 2-156]	human somatostatin receptor subtype 5 (Homo sapiens, UniProt P35346)	> 8.00

Kindly give each listed record's pEC50.
1. NCC1CN(c2c(-c3cc(Cl)cc(C(F)(F)F)c3)cncc2-c2nc3cc(F)cc(F)c3[nH]2)C1 [Compound 1-40]
2. NCC1CN(c2c(-c3nc4cc(F)cc(F)c4[nH]3)cncc2-c2cccc3cc[nH]c23)C1 [Compound 1-36]

["7.00 to 8.00", "7.00 to 8.00"]

###

Could you please report measured EC50 for the items listed next?
Target: UniProt:P30874
Assay: cAMP assay for SST2R (inhibition of cAMP via human SST2 receptor)
Conditions: Table B, read-out: SST2 potency
Description: cAMP Assay Protocol for SST2R:

Take a look at these entries with their results.
compound	EC50
Cc1cccc(-c2cncc(-c3nc4c(C)cccc4[nH]3)c2N2CCC(N)CC2)c1	< 10 nM
Cc1cc(F)cc2[nH]c(-c3cncc(-c4ccnc(C#N)c4)c3N3CC[C@](C)(N)C3)nc12 [Compound 2-166]	100 to 1000 nM
NC(=O)c1cccc(-c2cncc(-c3nc4c(F)ccc(F)c4[nH]3)c2N2CC[C@H](N)C2)c1 [Compound 2-43]	> 1000 nM
C[C@]1(N)CCN(c2c(-c3ccnc(C#N)c3)cncc2-c2nc3c(F)cccc3[nH]2)C1 [Compound 2-162]	100 to 1000 nM
N#Cc1cccc(-c2cncc(-c3nc4cccc(F)c4[nH]3)c2N2CC[C@H](N)C2)c1 [Compound 2-7]	100 to 1000 nM

Kindly give each listed record's EC50.
1. CC1(N)CCN(c2c(-c3ccc4cc[nH]c4c3)cncc2-c2nc3cccc(F)c3[nH]2)C1 (stereo not shown) [Compound 2-29]
2. CC1(N)CCN(c2c(-c3ccnc(C#N)c3)cncc2-c2nc3cccc(F)c3[nH]2)C1 (stereo not shown) [Compound 2-121]
3. Cc1ccnc2nc(-c3cncc(-c4ccc(F)c(Cl)c4)c3N3CC[C@](C)(N)C3)[nH]c12 [Compound 2-192]

1. 100 to 1000 nM
2. 100 to 1000 nM
3. 10 to 100 nM

Kindly give each listed record's EC50.
1. Cc1cccc(-c2cncc(-c3nc4cccc(C)c4[nH]3)c2N2CC[C@H](N)C2)c1 [Compound 2-146]
2. Cc1ccc(F)c2nc(-c3cncc(-c4ccc(F)c(C(N)=O)c4)c3N3CCC(C)(N)C3)[nH]c12 (stereo not shown) [Compound 2-125]
3. Cc1cccc2nc(-c3cncc(-c4cccc(C#N)c4)c3N3CC[C@H](N)C3)[nH]c12 [Compound 2-80]
4. Cc1cccc(-c2cncc(-c3nc4cccc(C)c4[nH]3)c2N2CC[C@@H](N)C2)c1 [Compound 2-199]
5. C[C@]1(N)CCN(c2c(-c3cccc(C#N)c3)cncc2-c2nc3c(F)cccc3[nH]2)C1 [Compound 2-200]

["100 to 1000 nM", "100 to 1000 nM", "100 to 1000 nM", "> 1000 nM", "100 to 1000 nM"]
